Test system: MOLM14;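 further: after 48 h exposure read by CellTiter-Glo luminescence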
Assay: cell viability relative to vehicle control; higher = less cytotoxic
Settings: 10 µM; SRSF2 genotype: SRSF2 wt/wt
Structures can show the parent of a compound that is named as a salt.
Returns: string. Value is Yes if measured cell viability is below 90%, and No if it is greater than or equal to it.

Req: Determine if CCCNC(C)C(=O)Nc1c(C)csc1C(=O)OC (stereo not given) [Articaine HCl] shows cell viability strictly lower than 90%.
Resp: No

Req: Determine if CC(=O)c1ccc2c(c1)c1cc(C(C)=O)ccc1n2CCNC(C)C shows cell viability strictly lower than 90%.
Resp: Yes

Req: Determine if C[C@@H](Nc1cc(F)cc(F)c1)c1cc(C(=O)N(C)C)cc2c(=O)cc(N3CCOCC3)oc12 shows cell viability strictly lower than 90%.
Resp: Yes

Req: Determine if C[S+]([O-])c1ccc(-c2nc(-c3ccc(F)cc3)c(-c3ccncc3)[nH]2)cc1 (stereo not given) shows cell viability strictly lower than 90%.
Resp: No

Req: Determine if O=C([O-])c1ccccc1O.[Na+] [Sodium salicylate] shows cell viability strictly lower than 90%.
Resp: No

* * *

Tested on: MOLM14;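 further: after 48 h exposure read by CellTiter-Glo luminescence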
Experiment: cell viability relative to vehicle control; higher = less cytotoxic
Conditions: 10 µM; SRSF2 genotype: SRSF2 wt/wt
Where a name gives a salt, the structure may show the parent alone.
Record form. Attribute: cell viability. Fill in for each entry.
State just the number; it will be interpreted in %.

Req: Quick one: give measured cell viability for COc1cc2c(cc1OC)CN(CCc1ccc(NC(=O)c3cc(OC)c(OC)cc3NC(=O)c3cnc4ccccc4c3)cc1)CC2 [Tariquidar]
Resp: 95.7

Req: Quick one: give measured cell viability for O=C(/C=C/n1cnc(-c2cc(C(F)(F)F)cc(C(F)(F)F)c2)n1)N1CC(F)(F)C1
Resp: 1.55

Req: Quick one: give measured cell viability for COc1ccc(-c2cc(=O)c3c(O)cc(O[C@@H]4O[C@H](CO[C@@H]5O[C@@H](C)[C@H](O)[C@@H](O)[C@H]5O)[C@@H](O)[C@H](O)[C@H]4O)cc3o2)cc1O [Diosmin]
Resp: 92.4

Req: Quick one: give measured cell viability for CCCOc1ccc(CCc2nc3cc(-c4c(C)noc4C)ccc3n2CCN2CCOCC2)cc1
Resp: 65

Req: Quick one: give measured cell viability for CCOC(=O)C1=C(COCCN)NC(C)=C(C(=O)OC)[C@@H]1c1ccccc1Cl [Levamlodipine]
Resp: 52

Req: Quick one: give measured cell viability for O=C(c1ccccc1)c1ccc2nc(NC(=O)c3csc(C4CCN(c5ncnc6ccsc56)CC4)n3)[nH]c2c1
Resp: 26.5

Req: Quick one: give measured cell viability for O=C1C(=Cc2cccnc2)C(=O)c2ccccc21
Resp: 99.4

Req: Quick one: give measured cell viability for CCN(CC)c1ccc2cc(C(=O)O)c(=O)oc2c1 [7-(Diethylamino)coumarin-3-carboxylic acid]
Resp: 110

Req: Quick one: give measured cell viability for C[C@@H](O)[C@H]1C(=O)N2C(C(=O)O)=C(S[C@@H]3CN[C@H](CNS(N)(=O)=O)C3)[C@H](C)[C@H]12 [Doripenem]
Resp: 98.3

Req: Quick one: give measured cell viability for C[C@H](CCC(=O)NCCS(=O)(=O)O)[C@H]1CC[C@H]2[C@@H]3[C@H](O)C[C@@H]4C[C@H](O)CC[C@]4(C)[C@H]3C[C@H](O)[C@]12C [Taurocholic acid sodium salt hydrate]
Resp: 111

Req: Quick one: give measured cell viability for OCCOCCN1CCN(C(c2ccccc2)c2ccc(Cl)cc2)CC1 (configuration not stated) [Hydroxyzine 2HCl]
Resp: 95

Req: Quick one: give measured cell viability for O=C1c2ccccc2C(=O)C1c1ccccc1 [Phenindione (Rectadione)]
Resp: 106

Req: Quick one: give measured cell viability for O=c1ccc2cc(O)ccc2o1 [6-Hydroxycoumarin]
Resp: 101

Req: Quick one: give measured cell viability for CN1c2ccccc2C(=O)Nc2cnc(Nc3ccc(N4CCC(O)CC4)cc3)nc21
Resp: 39.6

Req: Quick one: give measured cell viability for Cc1ccc(C(C)C)cc2c(C)ccc1-2 [Guaiazulene]
Resp: 105

Req: Quick one: give measured cell viability for O[C@H]1[C@H]2c3cc4c(cc3CN3CCC(=C[C@@H]1O)[C@H]23)OCO4 [Lycorine]
Resp: 7.75

Req: Quick one: give measured cell viability for O=C1CCc2cc(OCCCCc3nnnn3C3CCCCC3)ccc2N1 [Cilostazol]
Resp: 101
